Taken from ChEMBL document CHEMBL3822455.

# PROTOCOL: Half life in Sprague-Dawley rat at 2 mg/kg, iv or 5 mg/kg, po
# Format: ADME, organism-based
# TEST_PARAMETERS: in vivo

MOLECULE	half-life (h)
COC(=O)N[C@H](C(=O)N1CCC[C@H]1c1ncc(-c2ccc3c(c2)OC(c2cc(F)cc(F)c2)n2c-3cc3cc(-c4cnc([C@@H]5CCCN5C(=O)[C@@H](NC(=O)OC)C(C)C)[nH]4)ccc32)[nH]1)C(C)C (stereo partly drawn)	5.1
COC(=O)N[C@H](C(=O)N1CCC[C@H]1c1ncc(-c2ccc3c(c2)OC(c2ccccc2F)n2c-3cc3cc(-c4cnc([C@@H]5CCCN5C(=O)[C@@H](NC(=O)OC)C(C)C)[nH]4)ccc32)[nH]1)C(C)C (stereo partly drawn)	4.6
COC(=O)N[C@H](C(=O)N1CCC[C@H]1c1ncc(-c2ccc3c(c2)OC(c2ccc(Cl)cc2)n2c-3cc3cc(-c4cnc([C@@H]5CCCN5C(=O)[C@@H](NC(=O)OC)C(C)C)[nH]4)ccc32)[nH]1)C(C)C (stereo partly drawn)	4.5

----------
# PROTOCOL: Half life in beagle dog at 2 mg/kg, iv or 5 mg/kg, po
# Format: ADME, organism-based, Canis lupus familiaris
# TEST_PARAMETERS: in vivo

COMPOUND	UNIT_SPEC	half-life
COC(=O)N[C@H](C(=O)N1CCC[C@H]1c1ncc(-c2ccc3c(c2)OC(c2cccc(OC)c2)n2c-3cc3cc(-c4cnc([C@@H]5CCCN5C(=O)[C@@H](NC(=O)OC)C(C)C)[nH]4)ccc32)[nH]1)C(C)C (mixture of isomers)	h	7.9

----------
# EC50 values compiled below
# Test system: Hepatitis C virus
# PROTOCOL: Antiviral activity against HCV genotype 2a assessed as replicon RNA level measured after 3 days by real-time PCR method
# Type: functional, organism-based, Hepacivirus hominis
# TEST_PARAMETERS: 72 h
READOUT_LABEL: EC50 (pM)

COMPOUND	MEASURED_NUMBER
COC(=O)N[C@H](C(=O)N1CCC[C@H]1c1ncc(-c2ccc3c(c2)OC(c2ccc(F)cc2)n2c-3cc3cc(-c4cnc([C@@H]5CCCN5C(=O)[C@@H](NC(=O)OC)C(C)C)[nH]4)ccc32)[nH]1)C(C)C (some centres not stated)	2
COC(=O)N[C@H](C(=O)N1CCC[C@H]1c1ncc(-c2ccc3c(c2)OC(c2cccc(-c4ccc(-c5ccccc5)cc4)c2)n2c-3cc3cc(-c4cnc([C@@H]5CCCN5C(=O)[C@@H](NC(=O)OC)C(C)C)[nH]4)ccc32)[nH]1)C(C)C (mixture of isomers)	3

----------
# PROTOCOL: Oral bioavailability in Sprague-Dawley rat at 5 mg/kg
# Type: ADME, organism-based
# TEST_PARAMETERS: Sprague-Dawley, in vivo
Measured bioavailability of individual entries
READOUT_LABEL: bioavailability (%)

MOLECULE	READOUT_LABEL	MEASURED_NUMBER
COC(=O)N[C@H](C(=O)N1CCC[C@H]1c1ncc(-c2ccc3c(c2)OC(c2ccccc2F)n2c-3cc3cc(-c4cnc([C@@H]5CCCN5C(=O)[C@@H](NC(=O)OC)C(C)C)[nH]4)ccc32)[nH]1)C(C)C (stereo partly specified)	bioavailability	8
COC(=O)N[C@H](C(=O)N1CCC[C@H]1c1ncc(-c2ccc3c(c2)OC(c2cc(F)cc(F)c2)n2c-3cc3cc(-c4cnc([C@@H]5CCCN5C(=O)[C@@H](NC(=O)OC)C(C)C)[nH]4)ccc32)[nH]1)C(C)C (stereo partly specified)	bioavailability	15
COC(=O)N[C@H](C(=O)N1CCC[C@H]1c1ncc(-c2ccc3c(c2)OC(c2cccc(F)c2)n2c-3cc3cc(-c4cnc([C@@H]5CCCN5C(=O)[C@@H](NC(=O)OC)C(C)C)[nH]4)ccc32)[nH]1)C(C)C (stereo partly specified)	bioavailability	12
COC(=O)N[C@H](C(=O)N1CCC[C@H]1c1ncc(-c2ccc3c(c2)OC(c2cc(OC)cc(OC)c2)n2c-3cc3cc(-c4cnc([C@@H]5CCCN5C(=O)[C@@H](NC(=O)OC)C(C)C)[nH]4)ccc32)[nH]1)C(C)C (mixture of isomers)	bioavailability	0
COC(=O)N[C@H](C(=O)N1CCC[C@H]1c1ncc(-c2ccc3c(c2)OC(c2ccc(Cl)cc2)n2c-3cc3cc(-c4cnc([C@@H]5CCCN5C(=O)[C@@H](NC(=O)OC)C(C)C)[nH]4)ccc32)[nH]1)C(C)C (stereo partly specified)	bioavailability	10
COC(=O)N[C@H](C(=O)N1CCC[C@H]1c1ncc(-c2ccc3c(c2)OC(c2cccc(Cl)c2)n2c-3cc3cc(-c4cnc([C@@H]5CCCN5C(=O)[C@@H](NC(=O)OC)C(C)C)[nH]4)ccc32)[nH]1)C(C)C (stereo partly specified)	bioavailability	12

----------
# Test system: Hepatitis C virus
# PROTOCOL: Antiviral activity against HCV genotype 4a assessed as replicon RNA level measured after 3 days by real-time PCR method
# Assay type: functional, organism-based, Hepacivirus hominis
# TEST_PARAMETERS: 72 h
// reported EC50 per item

COMPOUND	SYSTEM_UNDER_TEST	MEASUREMENT_QUALIFIER	EC50 [pM]
COC(=O)N[C@H](C(=O)N1CCC[C@H]1c1ncc(-c2ccc3c(c2)OC(c2ccccc2)n2c-3cc3cc(-c4cnc([C@@H]5CCCN5C(=O)[C@@H](NC(=O)OC)C(C)C)[nH]4)ccc32)[nH]1)C(C)C (some centres undefined)	Hepatitis C virus	=	3
COC(=O)N[C@H](C(=O)N1CCC[C@H]1c1ncc(-c2ccc3c(c2)OC(c2ccccc2Cl)n2c-3cc3cc(-c4cnc([C@@H]5CCCN5C(=O)[C@@H](NC(=O)OC)C(C)C)[nH]4)ccc32)[nH]1)C(C)C (some centres undefined)	Hepatitis C virus	=	300
CCOc1cccc(C2Oc3cc(-c4cnc([C@@H]5CCCN5C(=O)[C@@H](NC(=O)OC)C(C)C)[nH]4)ccc3-c3cc4cc(-c5cnc([C@@H]6CCCN6C(=O)[C@@H](NC(=O)OC)C(C)C)[nH]5)ccc4n32)c1 (mixture of isomers)	Hepatitis C virus	=	0.5
COC(=O)N[C@H](C(=O)N1CCC[C@H]1c1ncc(-c2ccc3c(c2)OC(c2ccc(-c4cccc(-c5ccccc5)c4)cc2)n2c-3cc3cc(-c4cnc([C@@H]5CCCN5C(=O)[C@@H](NC(=O)OC)C(C)C)[nH]4)ccc32)[nH]1)C(C)C (mixture of isomers)	Hepatitis C virus	<	20

----------
# Tested on: Hepatitis C virus
# PROTOCOL: Antiviral activity against HCV genotype 4a assessed as replicon RNA level measured after 3 days by real-time PCR method
# Format: functional, organism-based, Hepacivirus hominis
# TEST_PARAMETERS: 72 h
Some compounds, each annotated with its measured EC50.
READOUT_LABEL: EC50 (nM)

COMPOUND	MEASURED_NUMBER
COC(=O)N[C@H](C(=O)N1CCC[C@H]1c1ncc(-c2ccc3c(c2)OC(c2ccncc2)n2c-3cc3cc(-c4cnc([C@@H]5CCCN5C(=O)[C@@H](NC(=O)OC)C(C)C)[nH]4)ccc32)[nH]1)C(C)C (mixture of isomers)	0.2
COC(=O)N[C@H](C(=O)N1CCC[C@H]1c1ncc(-c2ccc3c(c2)OC(c2ccc(OC(F)(F)F)cc2)n2c-3cc3cc(-c4cnc([C@@H]5CCCN5C(=O)[C@@H](NC(=O)OC)C(C)C)[nH]4)ccc32)[nH]1)C(C)C (mixture of isomers)	0.2

----------
Here, each record is paired with measured pEC50 data.
# System: Hepatitis C virus
# PROTOCOL: Antiviral activity against HCV genotype 4a assessed as replicon RNA level measured after 3 days by real-time PCR method
# Type: functional, organism-based, Hepacivirus hominis
# TEST_PARAMETERS: 72 h
pEC50: −log10 of the molar value.
READOUT_LABEL: pEC50

COMPOUND	MEASUREMENT_QUALIFIER	MEASURED_NUMBER
COC(=O)N[C@H](C(=O)N1CCC[C@H]1c1ncc(-c2ccc3c(c2)OC(c2cccc(O)c2)n2c-3cc3cc(-c4cnc([C@@H]5CCCN5C(=O)[C@@H](NC(=O)OC)C(C)C)[nH]4)ccc32)[nH]1)C(C)C (mixture of isomers)	=	10.70
COC(=O)N[C@H](C(=O)N1CCC[C@H]1c1ncc(-c2ccc3c(c2)OC(c2cccc(OC)c2)n2c-3cc3cc(-c4cnc([C@@H]5CCCN5C(=O)[C@@H](NC(=O)OC)C(C)C)[nH]4)ccc32)[nH]1)C(C)C (mixture of isomers)	=	11.70
COC(=O)N[C@H](C(=O)N1CCC[C@H]1c1ncc(-c2ccc3c(c2)OC(c2cccc(F)c2)n2c-3cc3cc(-c4cnc([C@@H]5CCCN5C(=O)[C@@H](NC(=O)OC)C(C)C)[nH]4)ccc32)[nH]1)C(C)C (stereo partly specified)	=	11.22
COC(=O)N[C@H](C(=O)N1CCC[C@H]1c1ncc(-c2ccc3c(c2)OC(c2cc(F)cc(F)c2)n2c-3cc3cc(-c4cnc([C@@H]5CCCN5C(=O)[C@@H](NC(=O)OC)C(C)C)[nH]4)ccc32)[nH]1)C(C)C (stereo partly specified)	=	11.40
CNC(=O)c1cccc(C2Oc3cc(-c4cnc([C@@H]5CCCN5C(=O)[C@@H](NC(=O)OC)C(C)C)[nH]4)ccc3-c3cc4cc(-c5cnc([C@@H]6CCCN6C(=O)[C@@H](NC(=O)OC)C(C)C)[nH]5)ccc4n32)c1 (mixture of isomers)	=	9.74
COC(=O)N[C@H](C(=O)N1CCC[C@H]1c1ncc(-c2ccc3c(c2)OC(c2ccc(F)c(F)c2)n2c-3cc3cc(-c4cnc([C@@H]5CCCN5C(=O)[C@@H](NC(=O)OC)C(C)C)[nH]4)ccc32)[nH]1)C(C)C (stereo partly specified)	=	11.10
COC(=O)N[C@H](C(=O)N1CCC[C@H]1c1ncc(-c2ccc3c(c2)OC(c2ccc(-c4ccc(-c5ccccc5)cc4)cc2)n2c-3cc3cc(-c4cnc([C@@H]5CCCN5C(=O)[C@@H](NC(=O)OC)C(C)C)[nH]4)ccc32)[nH]1)C(C)C (mixture of isomers)	=	12.00
COC(=O)N[C@H](C(=O)N1CCC[C@H]1c1ncc(-c2ccc3c(c2)OC(c2cccc(N4CCOCC4)c2)n2c-3cc3cc(-c4cnc([C@@H]5CCCN5C(=O)[C@@H](NC(=O)OC)C(C)C)[nH]4)ccc32)[nH]1)C(C)C (mixture of isomers)	=	11.15
CCc1cccc(C2Oc3cc(-c4cnc([C@@H]5CCCN5C(=O)[C@@H](NC(=O)OC)C(C)C)[nH]4)ccc3-c3cc4cc(-c5cnc([C@@H]6CCCN6C(=O)[C@@H](NC(=O)OC)C(C)C)[nH]5)ccc4n32)c1 (mixture of isomers)	=	12.00
COC(=O)N[C@H](C(=O)N1CCC[C@H]1c1ncc(-c2ccc3c(c2)OC(c2cc(OC)cc(OC)c2)n2c-3cc3cc(-c4cnc([C@@H]5CCCN5C(=O)[C@@H](NC(=O)OC)C(C)C)[nH]4)ccc32)[nH]1)C(C)C (mixture of isomers)	=	11.00
COC(=O)N[C@H](C(=O)N1CCC[C@H]1c1ncc(-c2ccc3c(c2)OC(c2ccc(-c4ccncc4)cc2)n2c-3cc3cc(-c4cnc([C@@H]5CCCN5C(=O)[C@@H](NC(=O)OC)C(C)C)[nH]4)ccc32)[nH]1)C(C)C (mixture of isomers)	=	10.70
COC(=O)N[C@H](C(=O)N1CCC[C@H]1c1ncc(-c2ccc3c(c2)OC(c2ccc(C#N)cc2)n2c-3cc3cc(-c4cnc([C@@H]5CCCN5C(=O)[C@@H](NC(=O)OC)C(C)C)[nH]4)ccc32)[nH]1)C(C)C (mixture of isomers)	=	11.00
COC(=O)N[C@H](C(=O)N1CCC[C@H]1c1ncc(-c2ccc3c(c2)OC(c2cccc(Cl)c2)n2c-3cc3cc(-c4cnc([C@@H]5CCCN5C(=O)[C@@H](NC(=O)OC)C(C)C)[nH]4)ccc32)[nH]1)C(C)C (stereo partly specified)	=	11.70
COC(=O)N[C@H](C(=O)N1CCC[C@H]1c1ncc(-c2ccc3c(c2)OC(c2cccc(C(F)(F)F)c2)n2c-3cc3cc(-c4cnc([C@@H]5CCCN5C(=O)[C@@H](NC(=O)OC)C(C)C)[nH]4)ccc32)[nH]1)C(C)C (mixture of isomers)	=	11.00
COC(=O)N[C@H](C(=O)N1CCC[C@H]1c1ncc(-c2ccc3c(c2)OC(c2cccc(C(N)=O)c2)n2c-3cc3cc(-c4cnc([C@@H]5CCCN5C(=O)[C@@H](NC(=O)OC)C(C)C)[nH]4)ccc32)[nH]1)C(C)C (mixture of isomers)	<	9.00
COC(=O)N[C@H](C(=O)N1CCC[C@H]1c1ncc(-c2ccc3c(c2)OC(c2ccccn2)n2c-3cc3cc(-c4cnc([C@@H]5CCCN5C(=O)[C@@H](NC(=O)OC)C(C)C)[nH]4)ccc32)[nH]1)C(C)C (mixture of isomers)	=	10.70
